Taken from patent US20260078108A1.

# experiment.notes: Solubility testing in water, SGF, FaSSIF, FeSSIF at 37° C.
# Format: physicochemical
# condition.summary: FeSSIF (pH of media 5.0), 37° C., 2 h
Where a name gives a salt, the structure may show the parent alone.
measure: Solubility
Param answer (str): number followed by unit.

Some compounds with recorded Solubility:
> print(dat)
                                   compound     measure  value.observed
1  NCc1ccc(C(=O)Nc2ccncc2F)cc1-c1cccc(C(=O)Nc2ccc(SC[C@H]3CCOC3=O)cc2)c1 (stereo in doubt) [HCl salt Form I]  Solubility        91 µg/mL
2  NCc1ccc(C(=O)Nc2ccncc2F)cc1-c1cccc(C(=O)Nc2ccc(SC[C@H]3CCOC3=O)cc2)c1 [HCl salt Form II]  Solubility        69 µg/mL
3  NCc1ccc(C(=O)Nc2ccncc2F)cc1-c1cccc(C(=O)Nc2ccc(SC[C@H]3CCOC3=O)cc2)c1 [Freebase Form I]  Solubility       126 µg/mL

Let us move to another entry and its Solubility.
Req: What does the record list as Solubility for NCc1ccc(C(=O)Nc2ccncc2F)cc1-c1cccc(C(=O)Nc2ccc(SC[C@H]3CCOC3=O)cc2)c1 [Succinate Form I] ?
Resp: 173 µg/mL

* * *

# assayed.system: PKCd (Homo sapiens)
# Sequence (Q05655 whole entry, species assumed): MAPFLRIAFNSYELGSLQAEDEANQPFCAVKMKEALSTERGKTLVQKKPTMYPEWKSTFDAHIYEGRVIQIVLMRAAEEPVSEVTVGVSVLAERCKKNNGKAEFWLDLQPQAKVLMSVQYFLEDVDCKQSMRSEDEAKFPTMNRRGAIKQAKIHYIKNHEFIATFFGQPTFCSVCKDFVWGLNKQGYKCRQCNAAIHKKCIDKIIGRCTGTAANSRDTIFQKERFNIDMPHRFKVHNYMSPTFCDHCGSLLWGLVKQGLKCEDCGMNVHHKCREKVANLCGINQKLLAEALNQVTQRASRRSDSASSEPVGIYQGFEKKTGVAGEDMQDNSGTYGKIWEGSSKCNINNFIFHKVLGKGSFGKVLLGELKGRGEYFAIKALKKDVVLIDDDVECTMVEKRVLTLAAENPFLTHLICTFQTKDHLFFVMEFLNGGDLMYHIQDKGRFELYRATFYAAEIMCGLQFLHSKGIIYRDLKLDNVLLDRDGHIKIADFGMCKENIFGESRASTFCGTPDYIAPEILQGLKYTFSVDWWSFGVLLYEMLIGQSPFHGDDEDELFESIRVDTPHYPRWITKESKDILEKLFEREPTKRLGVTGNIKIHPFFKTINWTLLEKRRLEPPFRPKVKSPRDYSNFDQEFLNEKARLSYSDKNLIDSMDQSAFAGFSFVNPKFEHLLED
# experiment.notes: Kinase panel 33P-ATP filter assay, PKCd
# Assay type: biochemical
# condition.summary: HCl salt tested; ATP Conc. 10 μM (Km); read-out: Compound IC50 (nM) PKCd
IC50 listing for selected molecules.

> print(dat)
                                   molecule  value.observed
1  NCc1ccc(C(=O)Nc2ccncc2F)cc1-c1cccc(C(=O)Nc2ccc(SC[C@H]3CCOC3=O)cc2)c1 [S-enantiomer]          0.9 nM

Req: Look at this molecule and give its reported IC50. NCc1ccc(C(=O)Nc2ccncc2F)cc1-c1cccc(C(=O)Nc2ccc(SC[C@@H]3CCOC3=O)cc2)c1 [R-enantiomer]
Resp: < 0.5 nM

* * *

Items are presented alongside their recorded Solubility.
# experiment.notes: Solubility testing in water, SGF, FaSSIF, FeSSIF at 37° C.
# Type: physicochemical
# condition.summary: FeSSIF (pH of media 5.0), 37° C., 0.5 h
Where a name gives a salt, the structure may show the parent alone.
Write down the numeric answer in µg/mL and omit the unit.

Study these solved cases before continuing.
> print(dat)
                                   compound  value.observed
1  NCc1ccc(C(=O)Nc2ccncc2F)cc1-c1cccc(C(=O)Nc2ccc(SC[C@H]3CCOC3=O)cc2)c1 (stereo in doubt) [HCl salt Form I]              83
2  NCc1ccc(C(=O)Nc2ccncc2F)cc1-c1cccc(C(=O)Nc2ccc(SC[C@H]3CCOC3=O)cc2)c1 [Freebase Form I]             183
3  NCc1ccc(C(=O)Nc2ccncc2F)cc1-c1cccc(C(=O)Nc2ccc(SC[C@H]3CCOC3=O)cc2)c1 [HCl salt Form II]              64

Please turn your attention to the following entry.
Req: Consider the compound NCc1ccc(C(=O)Nc2ccncc2F)cc1-c1cccc(C(=O)Nc2ccc(SC[C@H]3CCOC3=O)cc2)c1 [Succinate Form I] and give its measured Solubility.
Resp: 188
